Listed here: items and their measured fold change (FC).
# system_under_test: Heat shock protein SSA1 (Saccharomyces cerevisiae S288c) (UniProt P10591)
# Sequence (P10591 whole entry): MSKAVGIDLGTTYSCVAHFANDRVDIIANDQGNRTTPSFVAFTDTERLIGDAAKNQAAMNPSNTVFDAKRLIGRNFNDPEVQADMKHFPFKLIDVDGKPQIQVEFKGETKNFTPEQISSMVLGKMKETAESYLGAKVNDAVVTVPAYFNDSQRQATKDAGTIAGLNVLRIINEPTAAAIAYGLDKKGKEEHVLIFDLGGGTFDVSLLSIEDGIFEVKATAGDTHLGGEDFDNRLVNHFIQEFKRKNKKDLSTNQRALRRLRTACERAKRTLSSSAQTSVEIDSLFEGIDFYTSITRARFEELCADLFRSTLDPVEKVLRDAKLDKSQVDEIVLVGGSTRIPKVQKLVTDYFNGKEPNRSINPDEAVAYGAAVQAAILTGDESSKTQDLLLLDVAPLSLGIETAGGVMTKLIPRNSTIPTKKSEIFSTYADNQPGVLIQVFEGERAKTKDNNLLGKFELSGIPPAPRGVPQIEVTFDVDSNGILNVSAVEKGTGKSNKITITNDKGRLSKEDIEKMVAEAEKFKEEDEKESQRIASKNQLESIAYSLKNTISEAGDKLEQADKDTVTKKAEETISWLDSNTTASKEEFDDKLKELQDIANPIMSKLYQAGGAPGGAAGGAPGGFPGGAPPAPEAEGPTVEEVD
# test_name: Effect on Saccharomyces cerevisiae Ssa1 ATPase activity assessed as fold change in Kcat at 100 uM in presence of J-domain containing yeast Ydj1 co-chaperone relative to control
Number only, no unit.

>>> observed("COC(=O)c1cc(-c2ccccc2)n(CCNC(=O)CCCCCN2C(=O)NC(c3ccc(-c4ccccc4)cc3)C(C(=O)OCc3ccccc3)=C2C)c1C (centres undefined)")
-1.7
>>> observed("CCOC(=O)C1=C(C)N(CCCC(=O)NCCn2c(-c3ccccc3)cc(C(=O)OC)c2C)C(=O)NC1c1ccc([N+](=O)[O-])cc1 (centres undefined)")
-1.6
>>> observed("CC1=C(C(=O)OCc2ccccc2)C(c2ccc([N+](=O)[O-])cc2)NC(=O)N1CCCC(=O)N(CCN1CCOCC1)C(C(=O)NC(C)(C)C)c1ccc(-c2ccccc2)cc1 (centres undefined)")
-1.5
>>> observed("CCCCNC(=O)C(c1ccc(-c2ccccc2)cc1)N(CCN1CCOCC1)C(=O)CCCCCN1C(=O)NC(c2ccc([N+](=O)[O-])cc2)C(C(=O)OCc2ccccc2)=C1C (centres undefined)")
-2.6

input: Please give the measured fold change (FC) for this compound: CCOC(=O)C1=C(C)N(CCCCCC(=O)O)C(=O)NC1c1cccc([N+](=O)[O-])c1 (centres undefined)
output: 1.1

input: Consider next the compound CCCCN1C(=O)NC(c2ccc(OC)cc2)C(C(=O)OCc2ccccc2)=C1C (centres undefined) in the same way.
output: -1.1

###

# System: Plasmodium falciparum
# test_name: Effect on Plasmodium falciparum Hsp70 ATPase activity assessed as fold change in Kcat at 100 uM relative to control
Mark satisfied for fold change (FC) under 2, not satisfied if at or over.

The following compounds have reported results that may help.
>>> assigned_label("CCCCNC(=O)C(c1ccc(-c2ccccc2)cc1)N(CCN1CCOCC1)C(=O)CCCCCN1C(=O)NC(c2ccc([N+](=O)[O-])cc2)C(C(=O)OCc2ccccc2)=C1C (stereo not given)")
"not satisfied"
>>> assigned_label("CC1=C(C(=O)OCc2ccccc2)C(c2ccc([N+](=O)[O-])cc2)NC(=O)N1CCCC(=O)N(CCN1CCOCC1)C(C(=O)NC(C)(C)C)c1ccc(-c2ccccc2)cc1 (stereo not given)")
"not satisfied"
>>> assigned_label("CCOC(=O)C1=C(C)N(CCCC(=O)NCCn2c(-c3ccccc3)cc(C(=O)OC)c2C)C(=O)NC1c1ccc([N+](=O)[O-])cc1 (stereo not given)")
"not satisfied"
>>> assigned_label("COC(=O)C1=C(Cc2ccccc2)NC(=O)NC1c1ccc2ccccc2c1 (stereo not given)")
"satisfied"

input: Does this compound meet the criterion fold change (FC) < 2? CCCCCCN(C(=O)CCCCCN1C(=O)NC(c2ccc(-c3ccccc3)cc2)C(C(=O)OCc2ccccc2)=C1C)C(C(=O)NCCCC)C1CCCCC1 (stereo not given)
output: not satisfied

###

# system_under_test: Heat shock protein SSA1 (Saccharomyces cerevisiae S288c) (UniProt P10591)
# test_name: Inhibition of Saccharomyces cerevisiae Ssa1 ATPase activity assessed as residual enzyme activity at 300 uM relative to control
reported_metric: fold change (FC)

See these solved cases before continuing.
>>> observed("COC(=O)C1=C(Cc2ccccc2)NC(=O)NC1c1ccc2ccccc2c1 (centres undefined)")
1.2
>>> observed("CCOC(=O)C1=C(C)N(CCCCCC(=O)O)C(=O)NC1c1cccc([N+](=O)[O-])c1 (centres undefined)")
0.93
>>> observed("CCCCNC(=O)C(c1ccc(-c2ccccc2)cc1)N(CCN1CCOCC1)C(=O)CCCCCN1C(=O)NC(c2ccc([N+](=O)[O-])cc2)C(C(=O)OCc2ccccc2)=C1C (centres undefined)")
1
>>> observed("COC(=O)c1cc(-c2ccccc2)n(CCNC(=O)CCCCCN2C(=O)NC(c3ccc(-c4ccccc4)cc3)C(C(=O)OCc3ccccc3)=C2C)c1C (centres undefined)")
1.2
>>> observed("CC1=C(C(=O)OCc2ccccc2)C(c2ccc([N+](=O)[O-])cc2)NC(=O)N1CCCC(=O)N(CCN1CCOCC1)C(C(=O)NC(C)(C)C)c1ccc(-c2ccccc2)cc1 (centres undefined)")
0.75
>>> observed("CCOC(=O)C1=C(C)N(Cc2ccccc2)C(=O)NC1c1ccccc1OS(=O)(=O)c1ccccc1[N+](=O)[O-] (centres undefined)")
1.1
>>> observed("CCCCCCN(C(=O)CCCCCN1C(=O)NC(c2ccc(-c3ccccc3)cc2)C(C(=O)OCc2ccccc2)=C1C)C(C(=O)NCCCC)C1CCCCC1 (centres undefined)")
0.97
>>> observed("CCOC(=O)C1=C(C)N(CCCC(=O)NCCn2c(-c3ccccc3)cc(C(=O)OC)c2C)C(=O)NC1c1ccc([N+](=O)[O-])cc1 (centres undefined)")
0.89

# ---- query molecule ----
input: Reported fold change (FC) for CCCCN1C(=O)NC(c2ccc(OC)cc2)C(C(=O)OCc2ccccc2)=C1C (centres undefined) : what is it?
output: 0.95

###

# system_under_test: Heat shock 70 kDa protein (Plasmodium falciparum) (UniProt P11144)
# Sequence (P11144 whole entry): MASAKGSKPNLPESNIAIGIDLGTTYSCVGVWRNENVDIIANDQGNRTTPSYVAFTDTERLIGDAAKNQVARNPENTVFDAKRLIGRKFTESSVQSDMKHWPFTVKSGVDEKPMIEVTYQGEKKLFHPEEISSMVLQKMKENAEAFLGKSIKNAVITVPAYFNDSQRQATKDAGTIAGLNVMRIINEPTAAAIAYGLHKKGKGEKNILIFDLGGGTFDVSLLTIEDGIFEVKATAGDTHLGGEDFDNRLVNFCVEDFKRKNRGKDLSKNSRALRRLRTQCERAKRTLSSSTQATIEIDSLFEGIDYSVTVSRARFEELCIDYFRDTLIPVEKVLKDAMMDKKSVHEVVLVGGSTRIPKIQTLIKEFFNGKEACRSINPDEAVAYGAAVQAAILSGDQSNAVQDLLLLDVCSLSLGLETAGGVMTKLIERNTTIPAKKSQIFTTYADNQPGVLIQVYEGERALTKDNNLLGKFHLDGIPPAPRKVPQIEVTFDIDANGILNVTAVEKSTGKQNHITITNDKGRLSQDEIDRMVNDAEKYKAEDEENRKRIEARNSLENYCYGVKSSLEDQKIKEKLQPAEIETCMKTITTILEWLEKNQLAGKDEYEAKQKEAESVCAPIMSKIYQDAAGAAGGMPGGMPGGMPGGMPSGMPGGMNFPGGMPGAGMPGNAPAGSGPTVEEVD
# test_name: Inhibition of Plasmodium falciparum Hsp70 ATPase activity assessed as residual enzyme activity at 300 uM relative to control
Reported fold change (FC) values for a set of compounds
Note: the reply should be a number with no unit written.

Example compounds with recorded fold change (FC):
>>> observed("COC(=O)C1=C(Cc2ccccc2)NC(=O)NC1c1ccc2ccccc2c1 (centres undefined)")
1
>>> observed("CCCCNC(=O)C(c1ccc(-c2ccccc2)cc1)N(CCN1CCOCC1)C(=O)CCCCCN1C(=O)NC(c2ccc([N+](=O)[O-])cc2)C(C(=O)OCc2ccccc2)=C1C (centres undefined)")
0.73
>>> observed("CCOC(=O)C1=C(C)N(CCCC(=O)NCCn2c(-c3ccccc3)cc(C(=O)OC)c2C)C(=O)NC1c1ccc([N+](=O)[O-])cc1 (centres undefined)")
1.02
>>> observed("COC(=O)c1cc(-c2ccccc2)n(CCNC(=O)CCCCCN2C(=O)NC(c3ccc(-c4ccccc4)cc3)C(C(=O)OCc3ccccc3)=C2C)c1C (centres undefined)")
1.01
>>> observed("CCCCN1C(=O)NC(c2ccc(OC)cc2)C(C(=O)OCc2ccccc2)=C1C (centres undefined)")
0.92

input: Any idea what fold change (FC) was measured for CCOC(=O)C1=C(C)N(Cc2ccccc2)C(=O)NC1c1ccccc1OS(=O)(=O)c1ccccc1[N+](=O)[O-] (centres undefined) ?
output: 0.99

input: Subsequent entry: CCCCCCN(C(=O)CCCCCN1C(=O)NC(c2ccc(-c3ccccc3)cc2)C(C(=O)OCc2ccccc2)=C1C)C(C(=O)NCCCC)C1CCCCC1 (centres undefined)
output: 0.74

input: Note, next up: CC1=C(C(=O)OCc2ccccc2)C(c2ccc([N+](=O)[O-])cc2)NC(=O)N1CCCC(=O)N(CCN1CCOCC1)C(C(=O)NC(C)(C)C)c1ccc(-c2ccccc2)cc1 (centres undefined)
output: 0.72

input: Follow-up entry: CCOC(=O)C1=C(C)N(CCCCCC(=O)O)C(=O)NC1c1cccc([N+](=O)[O-])c1 (centres undefined)
output: 1.01

###

# system_under_test: Heat shock 70 kDa protein 1A (Homo sapiens)
# test_name: Effect on human HSPA1A ATPase activity assessed as fold change in Kcat at 100 uM presence of J-domain containing yeast Ydj1 co-chaperone relative to control
Recorded fold change (FC) by entry
# print the numeric value only

Sample records with fold change (FC):
>>> observed("CC1=C(C(=O)OCc2ccccc2)C(c2ccc([N+](=O)[O-])cc2)NC(=O)N1CCCC(=O)N(CCN1CCOCC1)C(C(=O)NC(C)(C)C)c1ccc(-c2ccccc2)cc1 (centres undefined)")
-1.1
>>> observed("CCCCN1C(=O)NC(c2ccc(OC)cc2)C(C(=O)OCc2ccccc2)=C1C (centres undefined)")
1.1
>>> observed("CCOC(=O)C1=C(C)N(CCCCCC(=O)O)C(=O)NC1c1cccc([N+](=O)[O-])c1 (centres undefined)")
-1.3
>>> observed("COC(=O)c1cc(-c2ccccc2)n(CCNC(=O)CCCCCN2C(=O)NC(c3ccc(-c4ccccc4)cc3)C(C(=O)OCc3ccccc3)=C2C)c1C (centres undefined)")
1.5
>>> observed("COC(=O)C1=C(Cc2ccccc2)NC(=O)NC1c1ccc2ccccc2c1 (centres undefined)")
-1.2

input: // query fold change (FC) value for entry CCCCCCN(C(=O)CCCCCN1C(=O)NC(c2ccc(-c3ccccc3)cc2)C(C(=O)OCc2ccccc2)=C1C)C(C(=O)NCCCC)C1CCCCC1 (centres undefined)
output: 1.1

input: Try the molecule CCOC(=O)C1=C(C)N(CCCC(=O)NCCn2c(-c3ccccc3)cc(C(=O)OC)c2C)C(=O)NC1c1ccc([N+](=O)[O-])cc1 (centres undefined)
output: -1.2

input: And then CCCCNC(=O)C(c1ccc(-c2ccccc2)cc1)N(CCN1CCOCC1)C(=O)CCCCCN1C(=O)NC(c2ccc([N+](=O)[O-])cc2)C(C(=O)OCc2ccccc2)=C1C (centres undefined) , what is it?
output: 1

input: Could you do the same for CCOC(=O)C1=C(C)N(Cc2ccccc2)C(=O)NC1c1ccccc1OS(=O)(=O)c1ccccc1[N+](=O)[O-] (centres undefined) , please?
output: -1.2

Numbers sourced from ChEMBL document CHEMBL1152744.
